Target: human iNOS (Homo sapiens, UniProt P35228)
Sequence (P35228 whole entry): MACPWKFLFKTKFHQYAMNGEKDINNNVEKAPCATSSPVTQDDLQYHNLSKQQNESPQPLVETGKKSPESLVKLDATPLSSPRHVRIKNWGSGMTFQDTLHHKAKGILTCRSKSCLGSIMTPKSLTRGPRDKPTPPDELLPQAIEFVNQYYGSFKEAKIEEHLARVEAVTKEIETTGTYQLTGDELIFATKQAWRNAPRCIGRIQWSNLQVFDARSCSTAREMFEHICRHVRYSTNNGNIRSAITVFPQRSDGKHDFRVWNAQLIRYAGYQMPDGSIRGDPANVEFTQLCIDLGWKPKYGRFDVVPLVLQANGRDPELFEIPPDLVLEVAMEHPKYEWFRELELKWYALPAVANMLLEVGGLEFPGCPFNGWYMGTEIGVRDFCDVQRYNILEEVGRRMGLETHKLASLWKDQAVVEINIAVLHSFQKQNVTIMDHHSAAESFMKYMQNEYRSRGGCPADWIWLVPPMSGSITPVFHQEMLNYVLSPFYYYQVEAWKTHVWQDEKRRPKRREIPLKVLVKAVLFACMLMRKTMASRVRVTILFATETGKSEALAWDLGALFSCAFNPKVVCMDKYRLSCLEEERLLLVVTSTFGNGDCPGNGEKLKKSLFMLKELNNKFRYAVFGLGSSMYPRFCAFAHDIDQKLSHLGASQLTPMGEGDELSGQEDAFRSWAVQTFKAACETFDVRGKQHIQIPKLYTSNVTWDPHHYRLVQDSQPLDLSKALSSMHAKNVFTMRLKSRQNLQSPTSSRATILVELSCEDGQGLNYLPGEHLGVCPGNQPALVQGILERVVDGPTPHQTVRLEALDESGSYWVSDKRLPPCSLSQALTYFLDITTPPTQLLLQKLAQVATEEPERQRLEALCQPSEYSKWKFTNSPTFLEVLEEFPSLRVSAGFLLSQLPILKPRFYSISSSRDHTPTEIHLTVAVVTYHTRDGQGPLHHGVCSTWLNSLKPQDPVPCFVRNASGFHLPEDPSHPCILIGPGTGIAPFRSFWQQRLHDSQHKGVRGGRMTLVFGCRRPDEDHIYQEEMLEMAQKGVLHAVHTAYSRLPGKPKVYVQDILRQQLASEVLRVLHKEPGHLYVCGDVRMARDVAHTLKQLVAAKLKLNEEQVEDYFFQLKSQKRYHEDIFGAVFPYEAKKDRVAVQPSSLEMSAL
Assay: DAN assay of nitric oxide production (hiNOS)
Settings: enzyme expressed in HEK293 cells transiently transfected with human iNOS
pEC50: −log10 of the molar value.
RECORDED_METRIC: pEC50

Could you tell me which pEC50 is on file for O=C(c1ccccn1)N(Cc1cc(=O)[nH]c2c(F)cccc12)c1cccc(Cl)c1 ? < 5.30

Could you tell me which pEC50 is on file for Cc1cnccc1-c1nc2ccccc2n1Cc1cc(=O)[nH]c2c(F)c(F)ccc12 ? ≥ 5.30

Could you tell me which pEC50 is on file for CC(C)(C)c1nc2ccccc2n1Cc1cc(=O)[nH]c2c(F)c(F)ccc12 ? < 5.30

Could you tell me which pEC50 is on file for Cn1cncc1-c1nc2ccccc2n1Cc1cc(=O)[nH]c2c(F)c(F)ccc12 ? ≥ 5.30

Could you tell me which pEC50 is on file for Cc1ncsc1C(=O)N(Cc1cc(=O)[nH]c2c(F)c(F)ccc12)c1cccc(Cl)c1C ? ≥ 5.30

Could you tell me which pEC50 is on file for CN(C)c1cccc(C(=O)N(Cc2cc(=O)[nH]c3c(F)cccc23)c2cccc(Cl)c2)c1 ? < 5.30

Could you tell me which pEC50 is on file for Cc1ncsc1C(=O)N(Cc1cc(=O)[nH]c2c(F)ccc(C)c12)c1cccc(Cl)c1 ? < 5.30
